Source: PubChem BioAssay (NCI)

Reported values of TGI for individual entries
- Test system: HCC-2998 colon
- experiment-notes: NCI tumour cell line growth inhibition, 48 h
Write the value in µM as a bare number.

Use these answered entries as a reference point.
molecule="CC[C@H](C)[C@H]1NC(=O)[C@@H](NC(=O)[C@@H](CC(C)C)N(C)C(=O)C2CCCN2C(=O)[C@H](C)O)[C@@H](C)OC(=O)[C@@H]2Cc3ccccc3CN2C(=O)[C@@H]2CCCN2C(=O)[C@H](CC(C)C)NC(=O)[C@@H](C)C(=O)[C@H](C(C)C)OC(=O)C[C@@H]1O (some centres undefined)" endpoint_value=3.26
molecule="CC1(c2ccccc2)CCN(C2CC2)CO1 (centres undefined)" endpoint_value=30.8
molecule=O=C1CCCC/C1=C(\Br)I endpoint_value=9.79
molecule="COc1ccc(Cc2c(-c3ccc(C)cc3)n[nH]c(=O)c2C2C(=O)N(c3ccccc3)N=C2c2ccccc2)cc1 (centres undefined)" endpoint_value=79.5

// next item, TGI requested
Can you share its TGI? I mean this molecule: C/C=C/C1=CN2C(=O)c3cc(OC4OC(C)C(NC)C(C)(O)C4O)c(C)cc3N=C[C@@H]2C1 (some centres undefined) 0.336
